Reported interaction score by item:
# experimental_system: T1, 4H338-bH
# T1 chain: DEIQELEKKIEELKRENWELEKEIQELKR
# assay_overview: two-hybrid library CCNG1;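 note: natural log of median RNA to DNA barcode read ratio; higher means stronger binding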
experimental_endpoint: interaction score

[[record]]
binder = "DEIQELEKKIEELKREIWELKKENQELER [4H331-bH]"
experimental_endpoint = "interaction score"
recorded_number = 0.213

[[record]]
binder = "DEIQELEKKIEELKRENWELEKEIQELKR [4H338-bH]"
experimental_endpoint = "interaction score"
recorded_number = 1.76

[[record]]
binder = "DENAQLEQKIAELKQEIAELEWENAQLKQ [4H1348-bA]"
experimental_endpoint = "interaction score"
recorded_number = 1.22

[[record]]
binder = "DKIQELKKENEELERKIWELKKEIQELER [4H2729-bH]"
experimental_endpoint = "interaction score"
recorded_number = -0.279

[[record]]
binder = "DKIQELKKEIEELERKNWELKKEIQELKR [4H2618-bH]"
experimental_endpoint = "interaction score"
recorded_number = 1.42


These data points were gathered from paper PMC10397247.
